Exercise: for every item that follows, state its recorded Ki.
TARGET_OF_ASSAY: UniProt P31645

Use the examples below as a reference point.
COC(=O)[C@H]1[C@@H](c2ccc(Cl)c(C)c2)C[C@H]2CC[C@H]1N2C.Cl : 0.95 nM
CCOc1ccc([C@H]2C[C@H]3CC[C@H]([C@H]2C(=O)OC)N3C)cc1 : 1.7 nM
COc1ccc([C@H]2C[C@H]3CC[C@H]([C@H]2C(=O)OC2CC2)N3C)cc1 : 29 nM
COc1ccc([C@H]2C[C@H]3CC[C@H]([C@H]2C(=O)OCCc2cc(I)c(N)c(I)c2)N3C)cc1 : 1 nM
COc1ccc([C@H]2C[C@H]3CC[C@H]([C@H]2C(=O)OC2CCC2)N3C)cc1 : 100 nM

Could I get Ki for every one of these entries?
1. COc1ccc([C@H]2C[C@H]3CC[C@H]([C@H]2c2cc(-c4ccc(C)cc4)no2)N3C)cc1
2. COc1ccc([C@H]2C[C@H]3CC[C@H]([C@H]2C(=O)OCCc2ccc(NC(C)=O)cc2)N3C)cc1
3. COc1ccc([C@H]2C[C@H]3CC[C@H]([C@H]2C(=O)OCCc2ccc(N)cc2)N3C)cc1
4. COC(=O)[C@H]1[C@@H](c2cc(I)c(OC)c(I)c2)C[C@H]2CC[C@H]1N2C

**A:**
1: 860 nM; 2: 5.5 nM; 3: 8.3 nM; 4: 7.5 nM

----------
Can you tell me Ki for the items I'm about to list?
TARGET_OF_ASSAY: Sodium-dependent noradrenaline transporter (Homo sapiens)
MEASUREMENT_NOTES: Displacement of [3H]nisoxetine from NET

COc1ccc([C@H]2C[C@H]3CC[C@H]([C@H]2C(=O)OCCc2ccc(N)c(Br)c2)N3C)cc1 : 1850 nM

# per-item lookup of Ki; items listed below
1. COc1ccc([C@H]2C[C@H]3CC[C@H]([C@H]2c2cc(-c4ccc(C)cc4)no2)N3C)cc1
2. COC(=O)[C@H]1[C@@H](c2cc(I)c(OC)c(I)c2)C[C@H]2CC[C@H]1N2C

**A:**
1: > 3000 nM; 2: > 5000 nM

----------
MEASUREMENT_NOTES: Selectivity ratio of Ki for 5HTT to Ki for NET
MEASURED_PARAMETER: Ratio Ki
Give bare numbers.

Worked set:
COc1ccc([C@H]2C[C@H]3CC[C@H]([C@H]2C(=O)OCCc2ccc(N)c(Br)c2)N3C)cc1 : 451
COc1ccc([C@H]2C[C@H]3CC[C@H]([C@H]2C(=O)OCCc2ccc(NC(C)=O)cc2)N3C)cc1 : 265
COc1ccc([C@H]2C[C@H]3CC[C@H]([C@H]2C(=O)OC2CC2)N3C)cc1 : 42
COc1ccc([C@H]2C[C@H]3CC[C@H]([C@H]2C(=O)OCCc2ccc([N+](=O)[O-])cc2)N3C)cc1 : 114

I'm hoping you can list Ratio Ki for every compound here, please.
1. COc1ccc([C@H]2C[C@H]3CC[C@H]([C@H]2c2cc(-c4ccc(C)cc4)no2)N3C)cc1
2. COC(=O)[C@H]1[C@@H](c2ccc(Cl)c(C)c2)C[C@H]2CC[C@H]1N2C.Cl
3. COC(=O)[C@H]1[C@@H](c2ccc(OC)c(F)c2)C[C@H]2CC[C@H]1N2C
4. COc1ccc([C@H]2C[C@H]3CC[C@H]([C@H]2C(=O)OCCc2ccc(N)cc2)N3C)cc1
5. COc1ccc([C@H]2C[C@H]3CC[C@H]([C@H]2C(=O)OC(C)C)N3C)cc1
6. COc1ccc([C@H]2C[C@H]3CC[C@H]([C@H]2C(=O)OC2CCC2)N3C)cc1

**A:**
1. 3
2. 23
3. 56
4. 265
5. 15
6. 30

Batch of 6 compounds: report Ratio Ki for each.
1. COc1ccc([C@H]2C[C@H]3CC[C@H]([C@H]2C(=O)OCCc2ccc(N)c(I)c2)N3C)cc1
2. CCOc1ccc([C@H]2C[C@H]3CC[C@H]([C@H]2C(=O)OC)N3C)cc1
3. COc1ccc([C@H]2C[C@H]3CC[C@H]([C@H]2C(=O)OCCc2cc(I)c(N)c(I)c2)N3C)cc1
4. COC(=O)[C@H]1[C@@H](c2cc(I)c(OC)c(I)c2)C[C@H]2CC[C@H]1N2C
5. COC(=O)[C@H]1[C@@H](c2ccc(OC)c(Br)c2)C[C@H]2CC[C@H]1N2C
6. COc1ccc([C@H]2C[C@H]3CC[C@H]([C@H]2C(=O)OCCc2cc(Br)c(N)c(Br)c2)N3C)cc1

**A:**
1. 583
2. 994
3. 2600
4. 667
5. 52
6. 1360

----------
TARGET_OF_ASSAY: Sodium-dependent dopamine transporter (Homo sapiens)
Sequence (Q01959 whole entry): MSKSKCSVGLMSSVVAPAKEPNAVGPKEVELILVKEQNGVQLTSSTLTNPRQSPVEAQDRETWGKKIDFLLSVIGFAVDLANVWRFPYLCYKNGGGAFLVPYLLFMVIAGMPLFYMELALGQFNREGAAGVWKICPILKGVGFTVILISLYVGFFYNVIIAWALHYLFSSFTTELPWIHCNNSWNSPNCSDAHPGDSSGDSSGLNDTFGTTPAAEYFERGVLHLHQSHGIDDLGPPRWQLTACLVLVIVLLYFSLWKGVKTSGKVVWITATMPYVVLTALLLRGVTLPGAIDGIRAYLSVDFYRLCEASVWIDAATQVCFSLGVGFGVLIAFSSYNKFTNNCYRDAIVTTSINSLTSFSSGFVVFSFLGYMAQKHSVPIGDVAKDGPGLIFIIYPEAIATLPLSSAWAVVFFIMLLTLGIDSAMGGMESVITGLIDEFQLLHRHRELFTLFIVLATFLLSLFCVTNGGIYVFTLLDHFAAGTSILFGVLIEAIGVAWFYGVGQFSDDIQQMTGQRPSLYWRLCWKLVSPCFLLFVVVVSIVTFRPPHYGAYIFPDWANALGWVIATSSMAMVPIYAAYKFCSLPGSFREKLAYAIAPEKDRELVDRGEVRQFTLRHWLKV
pIC50: −log10 of the molar value.
Param threshold (7) applies to pIC50; output met when value >= threshold, not met when value < threshold.

COC(=O)[C@H]1[C@@H](c2ccc(OC)c(I)c2)C[C@H]2CC[C@H]1N2C : not met
COc1ccc([C@H]2C[C@H]3CC[C@H]([C@H]2C(=O)OC(C)C)N3C)cc1 : met
COc1ccc([C@H]2C[C@H]3CC[C@H]([C@H]2C(=O)OCCc2cc(Br)c(N)c(Br)c2)N3C)cc1 : met
COc1ccc([C@H]2C[C@H]3CC[C@H]([C@H]2C(=O)OC2CCC2)N3C)cc1 : met

Shifting focus to the compound that follows.
**Q:** Is the recorded value of pIC50 equal to or greater than 7 for this compound? "COC(=O)[C@H]1[C@@H](c2ccc(Cl)c(C)c2)C[C@H]2CC[C@H]1N2C.Cl"
**A:** met

----------
Hi! I'm sharing some Ki results obtained with Sodium-dependent noradrenaline transporter (Homo sapiens, UniProt P23975).
Sequence (P23975 whole entry): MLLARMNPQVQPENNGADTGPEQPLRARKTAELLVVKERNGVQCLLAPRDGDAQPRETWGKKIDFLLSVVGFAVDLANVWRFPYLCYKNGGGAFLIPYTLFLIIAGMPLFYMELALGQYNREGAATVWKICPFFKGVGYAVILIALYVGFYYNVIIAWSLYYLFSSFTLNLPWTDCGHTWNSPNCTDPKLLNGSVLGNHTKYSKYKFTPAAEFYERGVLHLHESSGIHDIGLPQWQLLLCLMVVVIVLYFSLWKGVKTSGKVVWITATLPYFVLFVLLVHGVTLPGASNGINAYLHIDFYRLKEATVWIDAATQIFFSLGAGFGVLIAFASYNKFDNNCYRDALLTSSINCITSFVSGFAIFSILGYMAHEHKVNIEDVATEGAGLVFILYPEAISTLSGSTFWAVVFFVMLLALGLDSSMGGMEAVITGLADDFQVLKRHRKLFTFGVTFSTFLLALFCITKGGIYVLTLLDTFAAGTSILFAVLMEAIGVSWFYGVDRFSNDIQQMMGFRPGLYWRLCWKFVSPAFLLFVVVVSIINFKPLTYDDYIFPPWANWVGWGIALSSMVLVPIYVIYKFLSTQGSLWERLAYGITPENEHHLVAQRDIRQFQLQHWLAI
Numbers only, in nM.

Guide cases for Ki, answers given:
COc1ccc([C@H]2C[C@H]3CC[C@H]([C@H]2C(=O)OCCc2ccc(N)c(I)c2)N3C)cc1 : 2040
COC(=O)[C@H]1[C@@H](c2ccc(OC)c(I)c2)C[C@H]2CC[C@H]1N2C : 180
COC(=O)[C@H]1[C@@H](c2cc(Br)c(OC)c(Br)c2)C[C@H]2CC[C@H]1N2C : 4100
COc1ccc([C@H]2C[C@H]3CC[C@H]([C@H]2C(=O)OC2CC2)N3C)cc1 : 1230
COc1ccc([C@H]2C[C@H]3CC[C@H]([C@H]2C(=O)OC(C)C)N3C)cc1 : 2010
COC(=O)[C@H]1[C@@H](c2ccc(OC)c(F)c2)C[C@H]2CC[C@H]1N2C : 270

For each of the molecules below, state Ki.
1. COC(=O)[C@H]1[C@@H](c2ccc(OC)cc2)C[C@H]2CC[C@H]1N2C
2. COc1ccc([C@H]2C[C@H]3CC[C@H]([C@H]2C(=O)OCCc2cc(I)c(N)c(I)c2)N3C)cc1
3. COC(=O)[C@H]1[C@@H](c2ccc(OC)c(Br)c2)C[C@H]2CC[C@H]1N2C
4. COc1ccc([C@H]2C[C@H]3CC[C@H]([C@H]2C(=O)OCCc2ccc(NC(C)=O)cc2)N3C)cc1
5. COc1ccc([C@H]2C[C@H]3CC[C@H]([C@H]2C(=O)OCCc2cc(Br)c(N)c(Br)c2)N3C)cc1
6. COc1ccc([C@H]2C[C@H]3CC[C@H]([C@H]2C(=O)OCCc2ccc([N+](=O)[O-])cc2)N3C)cc1
7. COc1ccc([C@H]2C[C@H]3CC[C@H]([C@H]2C(=O)OCCc2ccc(N)cc2)N3C)cc1

**A:**
1: 1110; 2: 2600; 3: 160; 4: 1460; 5: 2710; 6: 330; 7: 2200

Provide Ki values for the following items, in order.
1. CCOc1ccc([C@H]2C[C@H]3CC[C@H]([C@H]2C(=O)OC)N3C)cc1
2. COC(=O)[C@H]1[C@@H](c2ccc(Cl)c(C)c2)C[C@H]2CC[C@H]1N2C.Cl

**A:**
1690
21.8

----------
# pKi measurements, system: Sodium-dependent serotonin transporter (Homo sapiens, UniProt P31645)
# Sequence (P31645 whole entry): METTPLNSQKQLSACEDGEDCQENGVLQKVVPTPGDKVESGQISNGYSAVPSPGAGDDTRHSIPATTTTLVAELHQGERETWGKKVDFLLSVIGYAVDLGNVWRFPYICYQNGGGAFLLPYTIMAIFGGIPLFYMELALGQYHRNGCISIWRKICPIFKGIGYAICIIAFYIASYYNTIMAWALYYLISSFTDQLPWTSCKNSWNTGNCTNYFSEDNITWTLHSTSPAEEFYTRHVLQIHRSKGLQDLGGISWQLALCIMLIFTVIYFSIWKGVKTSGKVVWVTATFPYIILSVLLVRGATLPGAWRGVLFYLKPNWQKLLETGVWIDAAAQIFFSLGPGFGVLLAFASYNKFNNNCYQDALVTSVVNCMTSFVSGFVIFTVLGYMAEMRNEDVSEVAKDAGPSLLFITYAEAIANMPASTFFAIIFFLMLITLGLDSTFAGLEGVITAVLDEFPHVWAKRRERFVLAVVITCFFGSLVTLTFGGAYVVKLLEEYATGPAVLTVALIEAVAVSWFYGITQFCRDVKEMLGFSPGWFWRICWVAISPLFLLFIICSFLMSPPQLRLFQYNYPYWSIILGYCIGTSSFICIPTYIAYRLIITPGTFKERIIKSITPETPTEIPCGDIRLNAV
Answers are plain numbers, as −log10 of the molar value.

Hi! Can you tell me pKi for each of these compounds?
1. COc1ccc([C@H]2C[C@H]3CC[C@H]([C@H]2C(=O)OCCc2cc(Br)c(N)c(Br)c2)N3C)cc1
2. COc1ccc([C@H]2C[C@H]3CC[C@H]([C@H]2C(=O)OCCc2ccc(N)c(I)c2)N3C)cc1
3. COc1ccc([C@H]2C[C@H]3CC[C@H]([C@H]2C(=O)OCCc2ccc([N+](=O)[O-])cc2)N3C)cc1
4. COc1ccc([C@H]2C[C@H]3CC[C@H]([C@H]2C(=O)OC(C)C)N3C)cc1
5. COC(=O)[C@H]1[C@@H](c2ccc(OC)c(F)c2)C[C@H]2CC[C@H]1N2C

**A:**
1. 8.70
2. 8.46
3. 8.54
4. 6.87
5. 8.32
